# System: NCI-H23
# TEST PROTOCOL: relative viability (nuclei count vs DMSO), 5 days (fraction); higher = more cells survive
# TEST PARAMETERS: first compound 20 µM
Lab note: cut-off is 0.2. Strictly less in relative viability is Condition met. Exactly 0.2 or more is Condition not met.

QUERY: For this molecule, is relative viability lower than 0.2? Cc1csc(=NC2CCCCC2)n1/N=C/c1ccc(O)c(O)c1O [MIM1] + COc1cc2c(Oc3ccc(NC(=O)C4(C(=O)Nc5ccc(F)cc5)CC4)cc3F)ccnc2cc1OCCCN1CCOCC1 [Foretinib] (partner 0.25 µM)
RESULT: Condition not met

QUERY: What do we get for Cc1csc(=NC2CCCCC2)n1/N=C/c1ccc(O)c(O)c1O [MIM1] + NC(=O)Nc1cc(-c2cccc(F)c2)sc1C(=O)N[C@H]1CCCNC1 [AZD7762] (partner 0.2 µM) ?
RESULT: Condition met

QUERY: What do we get for Cc1csc(=NC2CCCCC2)n1/N=C/c1ccc(O)c(O)c1O [MIM1] + CS(=O)(=O)N1CCN(Cc2cc3nc(-c4cccc5[nH]ncc45)nc(N4CCOCC4)c3s2)CC1 [Pictilisib] (partner 1 µM) ?
RESULT: Condition met

QUERY: What do we get for Cc1csc(=NC2CCCCC2)n1/N=C/c1ccc(O)c(O)c1O [MIM1] + O=C(c1cc(Cc2n[nH]c(=O)c3ccccc23)ccc1F)N1CCN(C(=O)C2CC2)CC1 [Olaparib] (partner 8 µM) ?
RESULT: Condition met

QUERY: What do we get for Cc1csc(=NC2CCCCC2)n1/N=C/c1ccc(O)c(O)c1O [MIM1] + CS(=O)(=O)CCNCc1ccc(-c2ccc3ncnc(Nc4ccc(OCc5cccc(F)c5)c(Cl)c4)c3c2)o1 [Lapatinib] (partner 2 µM) ?
RESULT: Condition met

====

# Tested on: EPLC-272H
# TEST PROTOCOL: relative viability (nuclei count vs DMSO), 5 days (fraction); higher = more cells survive
# TEST PARAMETERS: first compound 8 µM
Would you kindly list relative viability for each of these compounds?

QUERY: Any idea what its relative viability is? The compound is Nc1cccc2c1CN(C1CCC(=O)NC1=O)C2=O (configuration not stated) [Lenalidomide] + CS(=O)(=O)CCNCc1ccc(-c2ccc3ncnc(Nc4ccc(OCc5cccc(F)c5)c(Cl)c4)c3c2)o1 [Lapatinib] (partner 2 µM)
RESULT: 0.648

QUERY: What do we get for Nc1cccc2c1CN(C1CCC(=O)NC1=O)C2=O (configuration not stated) [Lenalidomide] + N=C(N)NC(=N)NCCc1ccccc1 [Phenformin] (partner 250 µM) ?
RESULT: 0.224

QUERY: What do we get for Nc1cccc2c1CN(C1CCC(=O)NC1=O)C2=O (configuration not stated) [Lenalidomide] + O=C(c1cc(Cc2n[nH]c(=O)c3ccccc23)ccc1F)N1CCN(C(=O)C2CC2)CC1 [Olaparib] (partner 8 µM) ?
RESULT: 0.657

QUERY: What do we get for Nc1cccc2c1CN(C1CCC(=O)NC1=O)C2=O (configuration not stated) [Lenalidomide] + COc1cc2c(Oc3ccc(NC(=O)C4(C(=O)Nc5ccc(F)cc5)CC4)cc3F)ccnc2cc1OCCCN1CCOCC1 [Foretinib] (partner 0.25 µM) ?
RESULT: 0.549

QUERY: What do we get for Nc1cccc2c1CN(C1CCC(=O)NC1=O)C2=O (configuration not stated) [Lenalidomide] + CC1(C)CCC(c2ccc(Cl)cc2)=C(CN2CCN(c3ccc(C(=O)NS(=O)(=O)c4ccc(N[C@H](CCN5CCOCC5)CSc5ccccc5)c(S(=O)(=O)C(F)(F)F)c4)cc3)CC2)C1 [Navitoclax] (partner 0.5 µM) ?
RESULT: 0.741

QUERY: What do we get for Nc1cccc2c1CN(C1CCC(=O)NC1=O)C2=O (configuration not stated) [Lenalidomide] + C[C@]1(O)C[C@@H](c2nc(-c3ccc4ccc(-c5ccccc5)nc4c3)c3c(N)nccn32)C1 [Linsitinib] (partner 1 µM) ?
RESULT: 0.843

QUERY: What do we get for Nc1cccc2c1CN(C1CCC(=O)NC1=O)C2=O (configuration not stated) [Lenalidomide] + CC(C)C[C@H](NC(=O)[C@H](Cc1ccccc1)NC(=O)c1cnccn1)B(O)O [Bortezomib] (partner 0.002 µM) ?
RESULT: 0.999

====

# Test system: LC-2-ad
# TEST PROTOCOL: relative viability (nuclei count vs DMSO), 5 days (fraction); higher = more cells survive
# TEST PARAMETERS: first compound 8 µM
Would you kindly list relative viability for each of these molecules?
Give a plain numeric answer without units written out.

QUERY: Any idea what its relative viability is? The molecule is Nc1cccc2c1CN(C1CCC(=O)NC1=O)C2=O (centres undefined) [Lenalidomide] + Cc1cc(Nc2cc(N3CCN(C)CC3)nc(Sc3ccc(NC(=O)C4CC4)cc3)n2)n[nH]1 [Tozasertib] (partner 0.1 µM)
RESULT: 0.469

QUERY: What do we get for Nc1cccc2c1CN(C1CCC(=O)NC1=O)C2=O (centres undefined) [Lenalidomide] + COc1cc2c(Oc3ccc(NC(=O)C4(C(=O)Nc5ccc(F)cc5)CC4)cc3F)ccnc2cc1OCCCN1CCOCC1 [Foretinib] (partner 0.25 µM) ?
RESULT: 0.96

QUERY: What do we get for Nc1cccc2c1CN(C1CCC(=O)NC1=O)C2=O (centres undefined) [Lenalidomide] + C[C@@H](Oc1cc(-c2cnn(C3CCNCC3)c2)cnc1N)c1c(Cl)ccc(F)c1Cl [Crizotinib] (partner 1 µM) ?
RESULT: 0.511

QUERY: What do we get for Nc1cccc2c1CN(C1CCC(=O)NC1=O)C2=O (centres undefined) [Lenalidomide] + CS(=O)(=O)CCNCc1ccc(-c2ccc3ncnc(Nc4ccc(OCc5cccc(F)c5)c(Cl)c4)c3c2)o1 [Lapatinib] (partner 2 µM) ?
RESULT: 1

====

# System: HARA
# TEST PROTOCOL: relative viability (nuclei count vs DMSO), 5 days (fraction); higher = more cells survive
# TEST PARAMETERS: first compound 2 µM
VALUE TYPE: relative viability
Give a plain numeric answer without units written out.

QUERY: Any idea what its relative viability is? The compound is Cc1csc(=NC2CCCCC2)n1/N=C/c1ccc(O)c(O)c1O [MIM1] + N=C(N)NC(=N)NCCc1ccccc1 [Phenformin] (partner 250 µM)
RESULT: 0.49

QUERY: What do we get for CN1CCN(CCOc2cc(OC3CCOCC3)c3c(Nc4c(Cl)ccc5c4OCO5)ncnc3c2)CC1 [Saracatinib] + C[C@@H](Oc1cc(-c2cnn(C3CCNCC3)c2)cnc1N)c1c(Cl)ccc(F)c1Cl [Crizotinib] (partner 1 µM) ?
RESULT: 0.64

QUERY: What do we get for CN1CCN(CCOc2cc(OC3CCOCC3)c3c(Nc4c(Cl)ccc5c4OCO5)ncnc3c2)CC1 [Saracatinib] + Nc1ncn([C@H]2C[C@H](O)[C@@H](CO)O2)c(=O)n1 [Decitabine] (partner 2 µM) ?
RESULT: 0.381

QUERY: What do we get for CN1CCN(CCOc2cc(OC3CCOCC3)c3c(Nc4c(Cl)ccc5c4OCO5)ncnc3c2)CC1 [Saracatinib] + CC(C)C[C@H](NC(=O)[C@H](Cc1ccccc1)NC(=O)c1cnccn1)B(O)O [Bortezomib] (partner 0.002 µM) ?
RESULT: 0.602

QUERY: What do we get for Cc1csc(=NC2CCCCC2)n1/N=C/c1ccc(O)c(O)c1O [MIM1] + O=C(c1cc(Cc2n[nH]c(=O)c3ccccc23)ccc1F)N1CCN(C(=O)C2CC2)CC1 [Olaparib] (partner 8 µM) ?
RESULT: 0.824

QUERY: What do we get for Cc1csc(=NC2CCCCC2)n1/N=C/c1ccc(O)c(O)c1O [MIM1] + CC(=O)c1c(C)c2cnc(Nc3ccc(N4CCNCC4)cn3)nc2n(C2CCCC2)c1=O [Palbociclib] (partner 0.5 µM) ?
RESULT: 0.281

QUERY: What do we get for CN1CCN(CCOc2cc(OC3CCOCC3)c3c(Nc4c(Cl)ccc5c4OCO5)ncnc3c2)CC1 [Saracatinib] + Cc1nc(Nc2ncc(C(=O)Nc3c(C)cccc3Cl)s2)cc(N2CCN(CCO)CC2)n1 [Dasatinib] (partner 0.075 µM) ?
RESULT: 0.23

QUERY: What do we get for Cc1csc(=NC2CCCCC2)n1/N=C/c1ccc(O)c(O)c1O [MIM1] + COc1cccc2cc(-c3nc([C@H]4CC[C@H](C(=O)O)CC4)n4ncnc(N)c34)[nH]c12 [OSI-027] (partner 0.5 µM) ?
RESULT: 0.547

QUERY: What do we get for Cc1csc(=NC2CCCCC2)n1/N=C/c1ccc(O)c(O)c1O [MIM1] + CCNC(=O)c1noc(-c2cc(C(C)C)c(O)cc2O)c1-c1ccc(CN2CCOCC2)cc1 [Luminespib] (partner 0.01 µM) ?
RESULT: 0.776

QUERY: What do we get for CN1CCN(CCOc2cc(OC3CCOCC3)c3c(Nc4c(Cl)ccc5c4OCO5)ncnc3c2)CC1 [Saracatinib] + O=C(c1cc(Cc2n[nH]c(=O)c3ccccc23)ccc1F)N1CCN(C(=O)C2CC2)CC1 [Olaparib] (partner 8 µM) ?
RESULT: 0.311
